Tested on: houseflies (Musca domestica, L.)
Test: Fly Immersion Test
Assay type: in vivo
Conditions: ratio immersion/bait LD50
(Imm/Bait), Housefly: recorded values
Give only the figure.

- LINE_NOTATION: "CSC(C)=NOC(=O)N(C)Sc1ccc(C(C)(C)C)cc1"
  EXPERIMENTAL_READOUT: "(Imm/Bait), Housefly"
  ENDPOINT_VALUE: 0.8
- LINE_NOTATION: "CSC(C)=NOC(=O)N(C)Sc1ccc(Cl)cc1"
  EXPERIMENTAL_READOUT: "(Imm/Bait), Housefly"
  ENDPOINT_VALUE: 3

Proceed to the following item.
Which (Imm/Bait), Housefly reading was recorded for the compound CNC(=O)ON=C(C)SC ?
8

* * *

Test: Mammalian Toxicity (peroral, rat)
Format: in vivo
Conditions: rat, in vivo, po, peroral; Table II; read-out: Rat Tox. LD50
Kindly apply the following: yes if LD50 is less than 60 mg/kg, no in every other case.

- LINE_NOTATION: "CCSC(C)=NOC(=O)NC"
  GROUP_LABEL: "yes"
- LINE_NOTATION: "CC(=NOC(=O)N(C)Sc1ccc(C(C)(C)C)cc1)SC(C)C"
  GROUP_LABEL: "no"
- LINE_NOTATION: "CSC(C)=NOC(=O)N(C)Sc1ccc(C(C)(C)C)cc1"
  GROUP_LABEL: "no"
- LINE_NOTATION: "CNC(=O)ON=C(C)SC(C)C"
  GROUP_LABEL: "yes"
- LINE_NOTATION: "CNC(=O)ON=C(C)SC"
  GROUP_LABEL: "yes"

For CSC(C)=NOC(=O)N(C)Sc1ccc(C)cc1 , is the recorded LD50 below the cut-off of 60 mg/kg?
yes

For CSC(C)=NOC(=O)N(C)Sc1ccc(Cl)cc1 , is the recorded LD50 below the cut-off of 60 mg/kg?
no

For CC(=NOC(=O)N(C)Sc1ccc(C)cc1)SC(C)C , is the recorded LD50 below the cut-off of 60 mg/kg?
yes

For CC(=NOC(=O)N(C)Sc1ccc(Cl)cc1)SC(C)C , is the recorded LD50 below the cut-off of 60 mg/kg?
yes

* * *

System: bean
Assay: Phytotoxicity Test, bean
Assay type: in vivo
Details: 2500 parts per million; ten days

- LINE_NOTATION: "CNC(=O)ON=C(C)SC(C)C"
  Phytotoxicity, Bean: "Bu 2"
- LINE_NOTATION: "CC(=NOC(=O)N(C)Sc1ccc(Cl)cc1)SC(C)C"
  Phytotoxicity, Bean: "Trif. 3"
- LINE_NOTATION: "CSC(C)=NOC(=O)N(C)Sc1ccc(Cl)cc1"
  Phytotoxicity, Bean: "Trif. 3"
- LINE_NOTATION: "CCSC(C)=NOC(=O)NC"
  Phytotoxicity, Bean: 2

* * *

Test system: southern armyworm (Spodoptera eridania, (Cram.))
Assay: Southern Armyworm Leaf Spray Bait Test
Format: in vivo
Conditions: bait; formula of footnote b is drawing 8
(b) relative efficacy of derivative vs parent compound, Armyworm: recorded values
Give only the figure.

Worked examples follow.
- LINE_NOTATION: "CC(=NOC(=O)N(C)Sc1ccc(C(C)(C)C)cc1)SC(C)C"
  ENDPOINT_VALUE: 1.6
- LINE_NOTATION: "CC(=NOC(=O)N(C)Sc1ccc(C)cc1)SC(C)C"
  ENDPOINT_VALUE: 2.3
- LINE_NOTATION: "CC(=NOC(=O)N(C)Sc1ccc(Cl)cc1)SC(C)C"
  ENDPOINT_VALUE: 1.0
- LINE_NOTATION: "CSC(C)=NOC(=O)N(C)Sc1ccc(C(C)(C)C)cc1"
  ENDPOINT_VALUE: 5.7

Which (b) relative efficacy of derivative vs parent compound, Armyworm reading was recorded for the compound CCSC(C)=NOC(=O)N(C)Sc1ccc(C(C)(C)C)cc1 ?
1.52

Which (b) relative efficacy of derivative vs parent compound, Armyworm reading was recorded for the compound CSC(C)=NOC(=O)N(C)Sc1ccc(Cl)cc1 ?
2.1

Which (b) relative efficacy of derivative vs parent compound, Armyworm reading was recorded for the compound CSC(C)=NOC(=O)N(C)Sc1ccc(C)cc1 ?
3.2

* * *

Tested on: bean aphid (Aphis fabae Scop.)
Assay: Bean Aphid Foliage Spray Test
Type: in vivo
Conditions: foliar, 24 hour holding period, read-out: Insect LD50, Aphid
Experimental: Suspensions of the test compouns were prepared by dissolving one gram of compound in 50 milliliters of acetone in which had been dissolved 0.1 gram (10 percent of the weight of compound) of an alkylphenoxy polyethoxyethanol surfactant, as an emulsifying or dispersing agent. The resulting solution was mixed into 150 milliliters of water to give roughly 200 milliliters of a suspension containing the compound in finely divided form. […]
Kindly apply the following: T if LC50 is less than 4 µg/mL, F in every other case.

Examples with answers:
- MOLECULE: "CC(=NOC(=O)N(C)Sc1ccc(Cl)cc1)SC(C)C [Compound 5]"
  GROUP_LABEL: "T"
- MOLECULE: "CC(=NOC(=O)N(C)Sc1ccc(C(C)(C)C)cc1)SC(C)C [Compound 9]"
  GROUP_LABEL: "F"

For CSC(C)=NOC(=O)N(C)Sc1ccc(C(C)(C)C)cc1 [Compound 8] , is the recorded LC50 below the cut-off of 4 µg/mL?
T

For CC(=NOC(=O)N(C)Sc1ccc(C)cc1)SC(C)C [Compound 7] , is the recorded LC50 below the cut-off of 4 µg/mL?
F

For CCSC(C)=NOC(=O)NC [Compound 3] , is the recorded LC50 below the cut-off of 4 µg/mL?
F

For CSC(C)=NOC(=O)N(C)Sc1ccc(C)cc1 [Compound 6] , is the recorded LC50 below the cut-off of 4 µg/mL?
F

For CNC(=O)ON=C(C)SC(C)C [Compound 2] , is the recorded LC50 below the cut-off of 4 µg/mL?
F

For CSC(C)=NOC(=O)N(C)Sc1ccc(Cl)cc1 [Compound 4] , is the recorded LC50 below the cut-off of 4 µg/mL?
T

For CCSC(C)=NOC(=O)N(C)Sc1ccc(C(C)(C)C)cc1 [Compound 10] , is the recorded LC50 below the cut-off of 4 µg/mL?
F

* * *

Tested on: cotton
Test: Phytotoxicity Test, cotton
Type: in vivo
Conditions: 2500 parts per million; ten days
EXPERIMENTAL_READOUT: Phytotoxicity, Cotton

Worked examples follow.
- LINE_NOTATION: "CSC(C)=NOC(=O)N(C)Sc1ccc(C(C)(C)C)cc1"
  ENDPOINT_VALUE: "Bu 2"
- LINE_NOTATION: "CSC(C)=NOC(=O)N(C)Sc1ccc(C)cc1"
  ENDPOINT_VALUE: "Bu 2"
- LINE_NOTATION: "CNC(=O)ON=C(C)SC"
  ENDPOINT_VALUE: "*Bu 3"
- LINE_NOTATION: "CSC(C)=NOC(=O)N(C)Sc1ccc(Cl)cc1"
  ENDPOINT_VALUE: "*Bu 3"
- LINE_NOTATION: "CC(=NOC(=O)N(C)Sc1ccc(Cl)cc1)SC(C)C"
  ENDPOINT_VALUE: "Bu 2"
- LINE_NOTATION: "CCSC(C)=NOC(=O)NC"
  ENDPOINT_VALUE: 2

Proceed to the following item.
Which Phytotoxicity, Cotton reading was recorded for the compound CNC(=O)ON=C(C)SC(C)C ?
Bu 2

* * *

Test: Mammalian Toxicity (peroral, rat)
Format: in vivo
Settings: rat, in vivo, po, peroral; molar weight LD50; Table I; read-out: Rat LD50/mole wt. [a]
Kindly apply the following: TRUE if LD50 is less than 50 µmol/kg, FALSE in every other case.

- LINE_NOTATION: "CNC(=O)ON=C(C)SC(C)C"
  GROUP_LABEL: "TRUE"
- LINE_NOTATION: "CC(=NOC(=O)N(C)Sc1ccc(C)cc1)SC(C)C"
  GROUP_LABEL: "FALSE"
- LINE_NOTATION: "CC(=NOC(=O)N(C)Sc1ccc(Cl)cc1)SC(C)C"
  GROUP_LABEL: "TRUE"
- LINE_NOTATION: "CC(=NOC(=O)N(C)Sc1ccc(C(C)(C)C)cc1)SC(C)C"
  GROUP_LABEL: "FALSE"

// next entry
For CSC(C)=NOC(=O)N(C)Sc1ccc(Cl)cc1 , is the recorded LD50 below the cut-off of 50 µmol/kg?
FALSE
